Task for the reader: assign each of the following molecules its reported ΔTm.
# Tested on: Quadruplex DNA
# MEASUREMENT_PROTOCOL: Stabilization of Parallel c-Kit1 G4-quadruplex DNA (5'-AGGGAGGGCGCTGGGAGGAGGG-3') (unknown origin) assessed as change in melting temperature at 5 equiv. by CD melting based analysis
# Assay type: nucleic-acid assay
The number alone won't do; follow it with the unit.

Q. I'd like to know its ΔTm. The molecule in question is COc1cn2c(cc1=O)c(=O)[nH]c1ccc(C(=O)NCCCN(C)C)cc12
A. 9.3 °C

Q. What does the record list as ΔTm for N=C(N)NCCCNC(=O)c1ccc2[nH]c(=O)c3cc(=O)c(O)cn3c2c1 ?
A. 3.2 °C

Q. Need ΔTm, item O=C(O)c1ccc2[nH]c(=O)c3cc(=O)c(OCc4ccccc4)cn3c2c1
A. -0.1 °C

---

Record form. Attribute: ΔTm. Fill in for each entry.
# System: Quadruplex DNA
# MEASUREMENT_PROTOCOL: Stabilization of Parallel c-Myc G4-quadruplex DNA (5'-TGAGGGTGGGTAGGGTGGGTAA-3') (unknown origin) assessed as change in melting temperature at 5 equiv. by CD melting based analysis
# Type: nucleic-acid assay
Provide a numeric answer, followed by its unit.

Q. Give its ΔTm value. Item: O=C(NCCN1CCCC1)c1ccc2[nH]c(=O)c3cc(=O)c(O)cn3c2c1
A. 5 °C

Q. Name the reported ΔTm value associated with the compound O=C(NCCN1CCOCC1)c1ccc2[nH]c(=O)c3cc(=O)c(O)cn3c2c1
A. 1.7 °C

Q. ΔTm for O=C(O)c1ccc2[nH]c(=O)c3cc(=O)c(OCc4ccccc4)cn3c2c1 ?
A. 0.5 °C

Q. Using the record for COc1cn2c(cc1=O)c(=O)[nH]c1ccc(C(=O)NCCCN(C)C)cc12 , report its ΔTm.
A. 5.9 °C

Q. Need ΔTm of CN(C)CCCNC(=O)c1ccc2[nH]c(=O)c3cc(=O)c(OCc4ccccc4)cn3c2c1 , thanks.
A. 12 °C

---

So I've got a bunch of compounds here, and I need their ΔTm values.
# Tested on: Quadruplex DNA
# MEASUREMENT_PROTOCOL: Stabilization of Hybrid Bcl2 G4-quadruplex DNA (5'-AGGGCGCGGGAGGAAGGGGGCGGGA-3') (unknown origin) assessed as change in melting temperature at 5 equiv. by CD melting based analysis
# Assay type: nucleic-acid assay
Please provide the amount together with its unit, number first.

Q. Short answer please: ΔTm, Quadruplex DNA, entry O=C(NCc1ccccc1)c1ccc2[nH]c(=O)c3cc(=O)c(OCc4ccccc4)cn3c2c1
A. 3.6 °C

Q. Form entry - test system: Quadruplex DNA; read-out: ΔTm; compound: O=C(NCCN1CCOCC1)c1ccc2[nH]c(=O)c3cc(=O)c(O)cn3c2c1
A. -0.5 °C

Q. Fill in the recorded ΔTm for this compound, with Quadruplex DNA as test system: CN(C)CCCNC(=O)c1ccc2[nH]c(=O)c3cc(=O)c(O)cn3c2c1
A. 8.7 °C

Q. Reported ΔTm for Quadruplex DNA, given O=C(NCCN1CCCC1)c1ccc2[nH]c(=O)c3cc(=O)c(O)cn3c2c1 ?
A. 1.6 °C

Q. Param readout= ΔTm; system= Quadruplex DNA; entry= N=C(N)NCCCNC(=O)c1ccc2[nH]c(=O)c3cc(=O)c(O)cn3c2c1 ; returns value.
A. 8.5 °C

Q. Enter reported ΔTm observed with Quadruplex DNA for COc1cn2c(cc1=O)c(=O)[nH]c1ccc(C(=O)NCCCN(C)C)cc12
A. 13.5 °C

Q. Requested read-out ΔTm, target or system Quadruplex DNA, entry O=C(O)c1ccc2[nH]c(=O)c3cc(=O)c(OCc4ccccc4)cn3c2c1
A. 1.4 °C

Q. Give the reported ΔTm for CN(C)CCCNC(=O)c1ccc2[nH]c(=O)c3cc(=O)c(OCc4ccccc4)cn3c2c1 (system: Quadruplex DNA).
A. 15.6 °C

---

# System: Hairpin duplex DNA
# MEASUREMENT_PROTOCOL: Stabilization of Hairpin duplex DNA (5'-CGCGAATTCGCGTTTCGCGAATTCGCG-3') (unknown origin) assessed as change in melting temperature at 5 equiv. by CD melting based analysis
# Format: nucleic-acid assay
ΔTm vs 1 °C: less than gives 1.0; not less than gives 0.0.

Q. Record CN(C)CCCNC(=O)c1ccc2[nH]c(=O)c3cc(=O)c(OCc4ccccc4)cn3c2c1 : is its ΔTm strictly below 1 °C?
A. 0.0

Q. ΔTm under 1 °C? Item: O=C(NCCN1CCOCC1)c1ccc2[nH]c(=O)c3cc(=O)c(O)cn3c2c1
A. 0.0

Q. ΔTm strictly < 1 °C for this compound? N=C(N)NCCCNC(=O)c1ccc2[nH]c(=O)c3cc(=O)c(O)cn3c2c1
A. 1.0

Q. Say whether its ΔTm is strictly beneath 1 °C. Entry: COc1cn2c(cc1=O)c(=O)[nH]c1ccc(C(=O)NCCCN(C)C)cc12
A. 0.0

Q. Could you please tell me whether ΔTm recorded for CN(C)CCCNC(=O)c1ccc2[nH]c(=O)c3cc(=O)c(O)cn3c2c1 is less than 1 °C?
A. 0.0

Q. Bench note: check whether O=C(NCc1ccccc1)c1ccc2[nH]c(=O)c3cc(=O)c(OCc4ccccc4)cn3c2c1 shows ΔTm below 1 °C
A. 1.0

Q. Consider O=C(NCCN1CCCC1)c1ccc2[nH]c(=O)c3cc(=O)c(O)cn3c2c1 . Does its ΔTm lie strictly below 1 °C?
A. 0.0

---

# Tested on: MCF7
# MEASUREMENT_PROTOCOL: Antiproliferative activity against human MCF7 cells assessed as decrease in cell survival incubated for 48 hrs by MTT assay
# Assay type: functional, cell-based
# PROTOCOL_CONDITIONS: MCF7, 48 h
PROPERTY_LABEL: IC50

Q. Query: IC50; subject: CN(C)CCCNC(=O)c1ccc2[nH]c(=O)c3cc(=O)c(O)cn3c2c1
A. > 200 µM

Q. Reported IC50 for CN(C)CCCNC(=O)c1ccc2[nH]c(=O)c3cc(=O)c(OCc4ccccc4)cn3c2c1 : what is it?
A. > 200 µM

---

Assign ΔTm to each entry below.
# Tested on: Quadruplex DNA
# MEASUREMENT_PROTOCOL: Stabilization of Parallel c-Kit2 G4-quadruplex DNA (5'-CGGGCGGGCGCTAGGGAGGGT-3') (unknown origin) assessed as change in melting temperature at 5 equiv. by CD melting based analysis
# Assay type: nucleic-acid assay

Q. Please tell me: ΔTm of O=C(NCCN1CCCC1)c1ccc2[nH]c(=O)c3cc(=O)c(O)cn3c2c1 , system Quadruplex DNA?
A. 6.6 °C

Q. For Quadruplex DNA, provide ΔTm of O=C(NCCN1CCOCC1)c1ccc2[nH]c(=O)c3cc(=O)c(O)cn3c2c1 please.
A. 5.5 °C

Q. Lookup: ΔTm / Quadruplex DNA / N=C(N)NCCCNC(=O)c1ccc2[nH]c(=O)c3cc(=O)c(O)cn3c2c1
A. 8.6 °C

Q. Requested read-out ΔTm, target or system Quadruplex DNA, entry O=C(NCc1ccccc1)c1ccc2[nH]c(=O)c3cc(=O)c(OCc4ccccc4)cn3c2c1
A. 7.5 °C

Q. // map CN(C)CCCNC(=O)c1ccc2[nH]c(=O)c3cc(=O)c(O)cn3c2c1 to recorded ΔTm (system: Quadruplex DNA)
A. 10.1 °C

---

Provide the reported ΔTm of each item.
# System: Quadruplex DNA
# MEASUREMENT_PROTOCOL: Stabilization of Parallel c-Kit2 G4-quadruplex DNA (5'-CGGGCGGGCGCTAGGGAGGGT-3') (unknown origin) assessed as change in melting temperature at 5 equiv. by CD melting based analysis
# Type: nucleic-acid assay
Numbers only; they are read as °C.

Q. For the compound shown here, O=C(O)c1ccc2[nH]c(=O)c3cc(=O)c(OCc4ccccc4)cn3c2c1 , give the reported ΔTm.
A. 3.3

Q. Value lookup for ΔTm; key = CN(C)CCCNC(=O)c1ccc2[nH]c(=O)c3cc(=O)c(OCc4ccccc4)cn3c2c1
A. 27.6

Q. Item under review: COc1cn2c(cc1=O)c(=O)[nH]c1ccc(C(=O)NCCCN(C)C)cc12 . Reported ΔTm?
A. 17.3

---

# SYSTEM_UNDER_TEST: Quadruplex DNA
# MEASUREMENT_PROTOCOL: Binding affinity to human Cy5-labeled Tel23 G4-quadruplex DNA (Cy5-TAGGGTTAGGGTTAGGGTTAGGG-3') assessed as equilibrium dissociation constant measured at 25 degC by microscale thermophoresis analysis
# Assay type: nucleic-acid assay
PROPERTY_LABEL: pKd
Scale for pKd: -log10 of concentration given in mol/L; no unit attached.

Q. What does the record list as pKd for CN(C)CCCNC(=O)c1ccc2[nH]c(=O)c3cc(=O)c(O)cn3c2c1 ?
A. 5.51

---

# Tested on: Jurkat
# MEASUREMENT_PROTOCOL: Antiproliferative activity against human Jurkat cells assessed as decrease in cell survival incubated for 48 hrs by MTT assay
# Format: functional, cell-based
Would you kindly list IC50 for each of these compounds?
Return type: number; implicit unit µM.

Q. Param readout= IC50; system= Jurkat; entry= CN(C)CCCNC(=O)c1ccc2[nH]c(=O)c3cc(=O)c(O)cn3c2c1 ; returns value.
A. 30

Q. Please tell me: IC50 of CN(C)CCCNC(=O)c1ccc2[nH]c(=O)c3cc(=O)c(OCc4ccccc4)cn3c2c1 , system Jurkat?
A. 55
